molecular target: Phosphoethanolamine N-methyltransferase 2 (Caenorhabditis elegans, UniProt Q22993); test: Calorimetric (ITC) Assay; settings: pH 7.5; 25 °C
Sequence (Q22993 whole entry): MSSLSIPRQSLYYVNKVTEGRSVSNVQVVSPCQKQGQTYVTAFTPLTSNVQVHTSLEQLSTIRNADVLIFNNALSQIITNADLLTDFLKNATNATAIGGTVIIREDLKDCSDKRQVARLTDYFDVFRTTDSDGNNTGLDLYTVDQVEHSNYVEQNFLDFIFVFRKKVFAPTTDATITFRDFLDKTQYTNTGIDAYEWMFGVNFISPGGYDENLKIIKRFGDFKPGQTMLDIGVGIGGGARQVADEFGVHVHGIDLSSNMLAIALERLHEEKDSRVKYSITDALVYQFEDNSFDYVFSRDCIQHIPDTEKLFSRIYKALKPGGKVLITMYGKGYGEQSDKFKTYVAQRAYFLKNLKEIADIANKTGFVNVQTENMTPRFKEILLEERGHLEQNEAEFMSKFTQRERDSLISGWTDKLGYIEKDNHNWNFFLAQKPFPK
VALUE TYPE: Kd (µM)
Report the value in µM with no unit label.

State, in one line, measured Kd of Nc1ncnc2c1ncn2[C@H]1O[C@@H](CSCC[C@@H](N)C(=O)O)[C@H](O)[C@@H]1O 5.4

###

target: Phosphoethanolamine N-methyltransferase 2 (Caenorhabditis elegans, UniProt Q22993); test: Calorimetric (ITC) Assay; conditions: pH 7.5; 10 °C
VALUE TYPE: Kd (nM)
Report the value in nM with no unit label.

State, in one line, measured Kd of Nc1ncnc2c1ncn2[C@H]1O[C@@H](CSCC[C@@H](N)C(=O)O)[C@H](O)[C@@H]1O [AdoCys] 2500
